Test system: HepG2
Test: cytotoxicity call (relative viability < 0.9)
Conditions: 10 µM
About 3,300 (8.5%) of roughly 39,000 compounds were called active. What follows is part of a selection rich in actives, with near analogues and random picks from the rest.
Labels: class 1 = active, class 0 = inactive

| chemical_smiles | category_label |
| --- | --- |
| O=C1NCCC[C@@H]1C(=O)N1CCCCC1 | class 0 |
| C[C@H]1COC(=O)[C@@H](Cc2ccc(F)cc2)CCC=CC[C@@H](CC(=O)N[C@H](CO)Cc2ccccc2)C(=O)N1 | class 0 |
| O=C(C[C@@H]1C=C[C@H](NC(=O)CN2CCOCC2)[C@H](CO)O1)NC1CCCCC1 | class 0 |
| COCC(=O)Nc1ccc2c(c1)C(=O)N(C)[C@H]1CC[C@@H](CC(=O)N3CCc4ccccc4C3)O[C@H]1CO2 | class 0 |
| COCC(=O)N1C[C@@H](C)[C@@H](OC)CN(C)C(=O)c2cc(NC(=O)c3cc(C)on3)ccc2OC[C@@H]1C | class 0 |
| Cc1noc(C)c1NC(=O)N(C)C[C@@H]1Oc2ccc(NC(=O)Cn3cnnn3)cc2C(=O)N([C@H](C)CO)C[C@@H]1C | class 0 |
| C[C@H]1CN([C@@H](C)CO)S(=O)(=O)c2ccc(-c3ccncc3)cc2O[C@H]1CN(C)S(=O)(=O)c1ccccc1F | class 0 |
| Cn1ccc(C(=O)N2CCC3(CCOC[C@@H]3NS(C)(=O)=O)CC2)n1 | class 0 |
| C[C@@H]1CN([C@H](C)CO)C(=O)c2cc(NC(=O)Nc3ccc(C(F)(F)F)cc3)ccc2O[C@H]1CN(C)S(=O)(=O)c1ccc(Cl)cc1 | class 1 |

###

Test system: HepG2
Assay: cytotoxicity call (relative viability < 0.9)
Details: 10 µM
Among all 39,000 compounds or so, about 3,300 (8.5%) were called active. For the sample, actives were picked, then their nearest neighbours and some compounds at random.
Outcome codes: 1 (yes) for active, 0 (no) for inactive

| compound | category_label |
| --- | --- |
| C[C@@H]1CCCCO[C@@H](CN(C)Cc2ccc3c(c2)OCO3)[C@H](C)CN([C@H](C)CO)C(=O)c2cc(NC(=O)CCC(F)(F)F)ccc2O1 | 0 (no) |
| CCOC(=O)[C@@H](N)Cc1ccc(O)c(O)c1 | 0 (no) |
| CCOC(=O)[C@H](Cc1c[nH]c2ccccc12)NC(=O)Cn1cc(C(=O)NO)nn1 | 0 (no) |
| COc1cccc(NC(=O)N(C)C[C@H]2Oc3ncc(Br)cc3C(=O)N([C@H](C)CO)C[C@H]2C)c1 | 0 (no) |
| C[C@H]1CN([C@@H](C)CO)C(=O)Cc2cc(NC(=O)Cn3cnnn3)ccc2O[C@H]1CN(C)Cc1ccc(Oc2ccccc2)cc1 | 0 (no) |
| CC(Cc1ccc(O)c(O)c1)(NN)C(=O)O (stereo not given) | 1 (yes) |
| CC(C)NC(=O)N(C)C[C@H]1Oc2ccc(NS(=O)(=O)c3cccs3)cc2C(=O)N([C@H](C)CO)C[C@@H]1C | 0 (no) |
| COc1ccc(S(=O)(=O)N(C)C[C@H]2OCCCC[C@H](C)Oc3ccc(NC(=O)Nc4ccc(C(F)(F)F)cc4)cc3C(=O)N([C@H](C)CO)C[C@H]2C)cc1 | 0 (no) |
| C[C@@H]1CCCCO[C@H](CN(C)Cc2ccc(Cl)c(Cl)c2)[C@H](C)CN([C@H](C)CO)C(=O)c2cc(NC(=O)CCC(F)(F)F)ccc2O1 | 1 (yes) |
| Cc1ccc(S(=O)(=O)N[C@@H](Cc2ccccc2)C(=O)NCCn2cc(CN3C(=O)COC[C@H]3c3ccccc3)nn2)cc1 | 0 (no) |
| C[C@@H]1CN([C@H](C)CO)C(=O)c2cc(NC(=O)Nc3ccc(F)cc3)ccc2O[C@H]1CN(C)Cc1ccc(C(F)(F)F)cc1 | 1 (yes) |
| C[C@@H]1CCCCO[C@@H](CN(C)C(=O)Nc2ccc3c(c2)OCO3)[C@@H](C)CN([C@H](C)CO)C(=O)c2cc(NC(=O)Nc3ccccc3)ccc2O1 | 0 (no) |
| C[C@@H]1CCCCO[C@@H](CN(C)CC2CCCCC2)[C@@H](C)CN([C@@H](C)CO)C(=O)c2cc(NC(=O)Nc3ccccc3)ccc2O1 | 1 (yes) |
| C[C@H](CO)N1C[C@H](C)[C@@H](CN(C)Cc2ccc(C(=O)Nc3ccccc3N)cc2)OCCCC[C@H](C)Oc2ccc(N(C)C)cc2C1=O | 0 (no) |
| COC(=O)c1cnn2c(=O)cc(C)[nH]c12 | 0 (no) |
| C[C@H]1CN([C@@H](C)CO)C(=O)c2cc(NC(=O)Nc3ccc(F)cc3)ccc2O[C@@H]1CN(C)Cc1ccc(C(F)(F)F)cc1 | 0 (no) |
| Cn1cnc(CN)c1 | 0 (no) |
| C[C@H](CO)N1C[C@H](C)[C@H](CN(C)Cc2ccc(C(F)(F)F)cc2)Oc2ccc(NC(=O)Nc3ccc(F)cc3)cc2C1=O | 0 (no) |
| C[C@@H]1CCCCO[C@H](CN(C)CC2CCCCC2)[C@H](C)CN([C@H](C)CO)C(=O)c2cc(NC(=O)Nc3ccccc3)ccc2O1 | 1 (yes) |
| O=C(O)Cc1ccc(O)c(O)c1 | 0 (no) |
| C[C@H]1CN([C@@H](C)CO)C(=O)c2cc(NC(=O)Cn3cnnn3)ccc2O[C@H]1CN(C)Cc1ccccc1 | 0 (no) |
| C[C@@H]1CN([C@H](C)CO)C(=O)c2cccc(NC(=O)CCCCCC(=O)Nc3ccccc3N)c2O[C@@H]1CN(C)C(=O)Nc1ccc(C(F)(F)F)cc1 | 0 (no) |
| C[C@@H]1CCCCO[C@H](CN(C)Cc2ccc(Cl)c(Cl)c2)[C@H](C)CN([C@@H](C)CO)C(=O)c2cc(NC(=O)CCC(F)(F)F)ccc2O1 | 1 (yes) |
| C[C@H](CO)N1C[C@H](C)[C@@H](CN(C)Cc2ccc(C(F)(F)F)cc2)Oc2ccc(NC(=O)Nc3ccc(F)cc3)cc2C1=O | 1 (yes) |
| C[C@@](Cc1ccc(O)c(O)c1)(NN)C(=O)O | 1 (yes) |

###

Tested on: HepG2
Experiment: cytotoxicity call (relative viability < 0.9)
Details: 10 µM
Out of some 39,000 compounds screened, about 3,300 (8.5%) were called active. This excerpt belongs to a sample that is enriched for actives.
measured_attribute: cytotoxicity call

| chemical_smiles | data_value |
| --- | --- |
| O=C(Nc1ccc(Cl)cc1)Nc1ccc(Cl)c(Cl)c1 | active |
| C[C@@H]1CN([C@H](C)CO)C(=O)CCCn2cc(nn2)CO[C@@H]1CN(C)C(=O)c1cc(-c2ccccc2)on1 | inactive |
| COc1ccc(NC(=O)N(C)C[C@@H]2Oc3c(NC(=O)c4cc(C)nn4C)cccc3C(=O)N([C@@H](C)CO)C[C@@H]2C)cc1 | inactive |
| Cc1noc(C)c1S(=O)(=O)Nc1ccc2c(c1)C(=O)N([C@H](C)CO)C[C@H](C)[C@@H](CN(C)Cc1ccc(C(=O)Nc3ccccc3N)cc1)OCCCC[C@@H](C)O2 | active |
| CC(C)NC(=O)Nc1ccc2c(c1)CC(=O)N([C@@H](C)CO)C[C@@H](C)[C@@H](CN(C)C(=O)Nc1ccc3c(c1)OCO3)O2 | inactive |
| C[C@@H]1CN([C@H](C)CO)C(=O)c2cc(NS(=O)(=O)c3cccs3)ccc2O[C@@H](C)CCCCO[C@H]1CN(C)Cc1ccccc1 | inactive |
| Cn1cnc(S(=O)(=O)N[C@@H]2CC[C@H](CC(=O)Nc3ccccc3)O[C@H]2CO)c1 | inactive |
| C[C@@H]1CCCCO[C@H](CN(C)C(=O)Cc2ccccc2)[C@@H](C)CN([C@H](C)CO)C(=O)c2cc(NC(=O)Cc3ccccc3)ccc2O1 | inactive |
| C[C@@H]1CCCCO[C@@H](CN(C)Cc2ccncc2)[C@H](C)CN([C@@H](C)CO)C(=O)c2cc(NC(=O)CCCCCC(=O)Nc3ccccc3N)ccc2O1 | inactive |
| COc1ccc(CN(C)C[C@@H]2Oc3ccc(NC(=O)Cn4cnnn4)cc3CC(=O)N([C@H](C)CO)C[C@H]2C)cc1 | inactive |
| C[C@@H]1CN([C@@H](C)CO)C(=O)c2cc(NC(=O)Nc3cccc4ccccc34)ccc2O[C@@H](C)CCCCO[C@@H]1CN(C)S(=O)(=O)c1ccc(Cl)cc1 | inactive |
| C[C@@H]1CCCCO[C@@H](CN(C)Cc2ccc3c(c2)OCO3)[C@H](C)CN([C@H](C)CO)C(=O)c2cc(NC(=O)Nc3ccc(C(F)(F)F)cc3)ccc2O1 | active |
| C[C@@H]1CN([C@@H](C)CO)C(=O)c2cccc(NC(=O)c3cnccn3)c2O[C@H]1CN(C)Cc1ccc(C(=O)O)cc1 | inactive |
| C[C@@H]1CN([C@@H](C)CO)C(=O)c2cc(NS(=O)(=O)c3cccs3)ccc2O[C@@H](C)CCCCO[C@H]1CN(C)Cc1ccccc1 | active |
